System: Hepatitis C virus NS3 helicase
Experiment: HCV NS3 helicase inhibitors, primary screen, biochemical, fluorescence polarization, NIH Clinical Collection (AID 743270)
Details: NS3 helicase binding to Cy5-dT15 DNA, concentration not given here
Active and inactive are the calls of the source. No rule for the calls is given here.
Thanks in advance; please answer with one of these: t for active, f for inactive

### Prompt Could you check what this test reported for "CCCc1nc2c(C)cc(-c3nc4ccccc4n3C)cc2n1Cc1ccc(-c2ccccc2C(=O)O)cc1" ?
### Response t

### Prompt Could you check what this test reported for "CN(C)CCN(Cc1ccccc1)c1ccccn1" ?
### Response f

### Prompt Could you check what this test reported for "COc1ccc(Cl)cc1C(=O)NCCc1ccc(S(=O)(=O)NC(=O)NC2CCCCC2)cc1" ?
### Response f

### Prompt Could you check what this test reported for COc1ccc(OC)c(C(O)CNC(=O)CN)c1 (configuration not stated) ?
### Response f

### Prompt Could you check what this test reported for "CC(=O)OCC(CCn1cnc2cnc(N)nc21)COC(C)=O" ?
### Response f

### Prompt Could you check what this test reported for "Cc1ccc(C)c(OCCCC(C)(C)C(=O)O)c1" ?
### Response f

### Prompt Could you check what this test reported for CC(COc1ccccc1)N(CCCl)Cc1ccccc1 (configuration not stated) ?
### Response f

### Prompt Could you check what this test reported for "CCc1cc(C(N)=S)ccn1" ?
### Response f

### Prompt Could you check what this test reported for "CC[C@H](C)C(=O)O[C@H]1C[C@@H](C)C=C2C=C[C@H](C)[C@H](CC[C@@H]3C[C@@H](O)CC(=O)O3)[C@H]21" ?
### Response f

### Prompt Could you check what this test reported for c1ccc2c(c1)CCCC2C1=NCCN1 (configuration not stated) ?
### Response f

### Prompt Could you check what this test reported for "CN(C)c1ccc(O)c2c1C[C@H]1C[C@H]3[C@H](N(C)C)C(=O)C(C(N)=O)=C(O)[C@@]3(O)C(=O)C1=C2O" ?
### Response f

### Prompt Could you check what this test reported for "Fc1ccc([C@@H]2CCNC[C@H]2COc2ccc3c(c2)OCO3)cc1" ?
### Response f

### Prompt Could you check what this test reported for CC(CN1c2ccccc2Sc2ccccc21)N(C)C (configuration not stated) ?
### Response f

### Prompt Could you check what this test reported for "C[C@H]1C[C@@H]2[C@H]([C@@H](O)C[C@@]3(C)[C@H]2CC[C@]3(O)C(=O)CO)[C@@]2(C)C=CC(=O)C=C12" ?
### Response f

### Prompt Could you check what this test reported for "c1ccc2c(CC3=NCCN3)cccc2c1" ?
### Response f

### Prompt Could you check what this test reported for "Nc1nc2ccc(OC(F)(F)F)cc2s1" ?
### Response f

### Prompt Could you check what this test reported for "CCCN1C[C@H](CSC)C[C@@H]2c3cccc4[nH]cc(c34)C[C@H]21" ?
### Response f

### Prompt Could you check what this test reported for "OC(Cn1cncn1)(Cn1cncn1)c1ccc(F)cc1F" ?
### Response f

### Prompt Could you check what this test reported for "CC(=O)OCC(=O)[C@@]1(O)CC[C@H]2[C@@H]3CCC4=CC(=O)C=C[C@]4(C)[C@H]3[C@@H](O)C[C@@]21C" ?
### Response f

### Prompt Could you check what this test reported for "CO[C@@]1(NC(=O)Cc2cccs2)C(=O)N2C(C(=O)O)=C(COC(N)=O)CS[C@@H]21" ?
### Response f

### Prompt Could you check what this test reported for "O[C@@H](c1cc(C(F)(F)F)nc2c(C(F)(F)F)cccc12)[C@H]1CCCCN1" ?
### Response f

### Prompt Could you check what this test reported for "Cc1onc(-c2ccccc2)c1-c1ccc(S(N)(=O)=O)cc1" ?
### Response f
